This listing pairs compounds with measured IC50.
molecular target: CYP2C9 (Homo sapiens, UniProt P11712)
Sequence (P11712 whole entry): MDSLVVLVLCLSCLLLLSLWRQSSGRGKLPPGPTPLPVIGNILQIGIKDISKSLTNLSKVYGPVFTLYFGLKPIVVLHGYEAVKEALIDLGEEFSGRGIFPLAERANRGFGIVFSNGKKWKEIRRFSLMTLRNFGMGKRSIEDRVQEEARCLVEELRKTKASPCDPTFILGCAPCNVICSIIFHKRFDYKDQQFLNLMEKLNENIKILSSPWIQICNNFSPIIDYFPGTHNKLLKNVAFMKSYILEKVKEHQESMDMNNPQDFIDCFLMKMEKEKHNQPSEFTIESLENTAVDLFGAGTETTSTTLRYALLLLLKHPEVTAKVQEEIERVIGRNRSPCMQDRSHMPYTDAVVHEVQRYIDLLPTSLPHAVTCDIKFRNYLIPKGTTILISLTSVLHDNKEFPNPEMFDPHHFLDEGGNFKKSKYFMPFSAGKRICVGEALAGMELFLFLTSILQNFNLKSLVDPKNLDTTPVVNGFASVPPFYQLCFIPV

Cc1c(Cl)cc2c(c1Cl)OC(C(C)C)C(=O)N2CCC(=O)O (stereo not shown) :: > 50 µM
Cc1ccc2c(c1)OC(C(C)C)CN2C(=O)/C=C/C(=O)O (stereo not shown) :: > 50 µM
CC(C)c1cccc2c1OC(C(C)C)C(=O)N2CCC(=O)O (stereo not shown) :: > 50 µM
CCCC1Oc2c(C)cc(C)cc2N(CCC(=O)O)C1=O (stereo not shown) :: > 50 µM
Cc1cc(Cl)cc2c1O[C@@H](C(C)C)C(=O)N2CCC(=O)O :: > 50 µM

CYP2C9 (Homo sapiens, UniProt P11712) assay, compound CC(C)c1cccc2c1OC(C(C)C)C(=S)N2CC(=O)O (stereo not shown) [Comparative Example, reference compound] , recorded IC50 = 16 µM

Record for Cc1cc(Cl)cc2c1OC(c1ccccc1)CN2C(=O)/C=C/C(=O)O (stereo not shown) under target or system CYP2C9 (Homo sapiens, UniProt P11712): IC50 reported as > 50 µM

// assay CYP2C9 (Homo sapiens, UniProt P11712), entry CCc1cc(C)c2c(c1)N(CCC(=O)O)C(=O)C(C(C)C)O2 (stereo not shown) , IC50 value = > 50 µM

Bench note, CYP2C9 (Homo sapiens, UniProt P11712): CC(C)c1cccc2c1OC(c1ccccc1)C(=O)N2CCC(=O)O (stereo not shown) , IC50 reads > 50 µM

Bench note, CYP2C9 (Homo sapiens, UniProt P11712): Cc1ccc2c(c1)N(C(=O)/C=C/C(=O)O)CC(c1ccccc1)O2 (stereo not shown) , IC50 reads > 50 µM
